The measurements presented in this section are drawn from ChEMBL document CHEMBL1141160.

target: Histone deacetylase; details: prostate
Description: In vitro inhibitory concentration against histone deacetylase of DU-145 prostate cell nuclear extract as deacetylation of biotinylated [3H]-acetyl histone H4 peptide

COMPOUND	TARGET OR SYSTEM	IC50
O=C(CCCCc1ccccc1)Nc1ccc(C(=O)NO)cc1	Histone deacetylase	250 nM
O=C(CCCc1ccccc1)NCc1ccc(C(=O)NO)cc1	Histone deacetylase	530 nM
O=C(Cc1ccccc1)Nc1ccc(C(=O)NO)cc1	Histone deacetylase	157 nM
CCC(C(=O)Nc1ccc(C(=O)NO)cc1)c1ccccc1 (racemic)	Histone deacetylase	54 nM
CC[C@H](C(=O)Nc1ccc(C(=O)NO)cc1)c1ccccc1	Histone deacetylase	34 nM
CC(C)(CCc1ccccc1)C(=O)Nc1ccc(C(=O)NO)cc1	Histone deacetylase	25 nM
O=C(CCc1ccc(NC(=O)CCCc2ccccc2)cc1)NO	Histone deacetylase	1200 nM
CN(C(=O)CCCc1ccccc1)c1ccc(C(=O)NO)cc1	Histone deacetylase	520 nM
O=C(NO)c1ccc(NC(=O)c2ccccc2)cc1	Histone deacetylase	210 nM
CC(C)(C(=O)Nc1ccc(C(=O)NO)cc1)c1ccccc1	Histone deacetylase	98 nM
CC[C@@H](C(=O)Nc1ccc(C(=O)NO)cc1)c1ccccc1	Histone deacetylase	68 nM
